This collection of values is drawn from ChEMBL document CHEMBL4219124.

Test: Drug uptake in brain of Dunkin-Hartley guinea pig LPS-induced hyperalgesia pain model at 10 mg/kg, po administered 2 hrs prior to LPS challenge measured 7 hrs post dose
Format: ADME, organism-based, Cavia porcellus
Conditions: read-out: Drug uptake
measure: concentration at 7 h (ng/g)
Answers are plain numbers, in ng/g.

concentration at 7 h recorded for this compound, CC1(C)Cc2c(c(C(=O)Nc3ccc(F)c(C(F)(F)F)c3)cc3nc(Nc4c(F)cccc4Cl)[nH]c23)O1 , is 96

* * *

Target: CYP2C19 (Homo sapiens, UniProt P33261)
Sequence (P33261 whole entry): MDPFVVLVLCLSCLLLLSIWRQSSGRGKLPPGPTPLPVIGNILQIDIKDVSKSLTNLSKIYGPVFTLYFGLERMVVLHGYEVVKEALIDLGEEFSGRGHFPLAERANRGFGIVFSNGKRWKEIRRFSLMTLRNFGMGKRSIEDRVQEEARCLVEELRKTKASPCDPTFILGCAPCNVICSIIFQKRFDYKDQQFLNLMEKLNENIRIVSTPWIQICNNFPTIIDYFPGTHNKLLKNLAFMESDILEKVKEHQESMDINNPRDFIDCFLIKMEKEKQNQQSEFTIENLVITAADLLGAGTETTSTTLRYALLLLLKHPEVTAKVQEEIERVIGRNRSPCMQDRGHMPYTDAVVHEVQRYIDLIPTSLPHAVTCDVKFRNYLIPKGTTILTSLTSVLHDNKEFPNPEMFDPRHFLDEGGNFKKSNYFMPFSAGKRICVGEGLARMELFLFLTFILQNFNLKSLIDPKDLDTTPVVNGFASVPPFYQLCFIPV
Test: Inhibition of CYP2C19 in human liver microsomes at 10 uM after 40 mins in presence of NADPH by LC-MS/MS analysis
Assay type: ADME
Field: inhibition at 40 min, 10 µM. Provide a value for each of the compounds that follow.
One number for each entry, in %.

Consider the worked cases shown below.
Measured inhibition at 40 min, 10 µM (CYP2C19 (Homo sapiens, UniProt P33261)), entry Cn1c(Nc2c(F)cccc2Cl)nc2cc(C(=O)Nc3cccc(C(F)(F)F)c3)c3c(c21)CC(C)(C)O3 : 36

Measured inhibition at 40 min, 10 µM (CYP2C19 (Homo sapiens, UniProt P33261)), entry CC1(C)Cc2c(c(C(=O)Nc3ccccc3C(F)(F)F)cc3nc(Nc4c(Cl)cccc4Cl)[nH]c23)O1 : 30

Measured inhibition at 40 min, 10 µM (CYP2C19 (Homo sapiens, UniProt P33261)), entry CC1(C)Cc2c(c(C(=O)Nc3cc(C4CC4)ccc3F)cc3nc(Nc4c(Cl)cccc4Cl)[nH]c23)O1 : 10

Measured inhibition at 40 min, 10 µM (CYP2C19 (Homo sapiens, UniProt P33261)), entry CC1(C)Cc2c(c(C(=O)Nc3cc(C4CC4)ccc3F)cc3nc(Nc4c(F)cccc4Cl)[nH]c23)O1 : 22

Measured inhibition at 40 min, 10 µM (CYP2C19 (Homo sapiens, UniProt P33261)), entry Cc1ccc(NC(=O)c2cc3nc(Nc4c(F)cccc4Cl)n(C)c3c3c2OC(C)(C)C3)c(F)c1 : 24

Hi! Can you tell me inhibition at 40 min, 10 µM for each of these compounds?
1. CC1(C)Cc2c(c(C(=O)Nc3c(F)cccc3F)cc3nc(Nc4c(Cl)cccc4Cl)[nH]c23)O1
2. Cc1cccc(Cl)c1Nc1nc2cc(C(=O)Nc3ccc(C(F)(F)F)cc3)c3c(c2[nH]1)CC(C)(C)O3
3. Cc1cc(C(F)(F)F)ccc1NC(=O)c1cc2nc(Nc3c(F)cccc3Cl)[nH]c2c2c1OC(C)(C)C2
4. CC1(C)Cc2c(c(C(=O)Nc3ccc(C(F)(F)F)cn3)cc3nc(Nc4c(Cl)cccc4Cl)[nH]c23)O1
5. CC1(C)Cc2c(c(C(=O)Nc3cc(C(F)(F)F)ccc3F)cc3nc(Nc4c(F)cccc4Cl)[nH]c23)O1
6. CC1(C)Cc2c(c(C(=O)Nc3ccc(F)c(C(F)(F)F)c3)cc3nc(Nc4c(F)cccc4Cl)[nH]c23)O1

## Result
1. 41
2. 19
3. 38
4. 15
5. 33
6. 55

Hi! Can you tell me inhibition at 40 min, 10 µM for each of these compounds?
1. CC1(C)Cc2c(c(C(=O)Nc3cc(C(F)F)ccc3F)cc3nc(Nc4c(F)cccc4Cl)[nH]c23)O1
2. CC1(C)Cc2c(c(C(=O)Nc3ccc(C(F)(F)F)cc3F)cc3nc(Nc4c(F)cccc4Cl)[nH]c23)O1

## Result
22
16

* * *

Target: hERG (KCNH2) (Homo sapiens, UniProt Q12809)
Sequence (Q12809 whole entry): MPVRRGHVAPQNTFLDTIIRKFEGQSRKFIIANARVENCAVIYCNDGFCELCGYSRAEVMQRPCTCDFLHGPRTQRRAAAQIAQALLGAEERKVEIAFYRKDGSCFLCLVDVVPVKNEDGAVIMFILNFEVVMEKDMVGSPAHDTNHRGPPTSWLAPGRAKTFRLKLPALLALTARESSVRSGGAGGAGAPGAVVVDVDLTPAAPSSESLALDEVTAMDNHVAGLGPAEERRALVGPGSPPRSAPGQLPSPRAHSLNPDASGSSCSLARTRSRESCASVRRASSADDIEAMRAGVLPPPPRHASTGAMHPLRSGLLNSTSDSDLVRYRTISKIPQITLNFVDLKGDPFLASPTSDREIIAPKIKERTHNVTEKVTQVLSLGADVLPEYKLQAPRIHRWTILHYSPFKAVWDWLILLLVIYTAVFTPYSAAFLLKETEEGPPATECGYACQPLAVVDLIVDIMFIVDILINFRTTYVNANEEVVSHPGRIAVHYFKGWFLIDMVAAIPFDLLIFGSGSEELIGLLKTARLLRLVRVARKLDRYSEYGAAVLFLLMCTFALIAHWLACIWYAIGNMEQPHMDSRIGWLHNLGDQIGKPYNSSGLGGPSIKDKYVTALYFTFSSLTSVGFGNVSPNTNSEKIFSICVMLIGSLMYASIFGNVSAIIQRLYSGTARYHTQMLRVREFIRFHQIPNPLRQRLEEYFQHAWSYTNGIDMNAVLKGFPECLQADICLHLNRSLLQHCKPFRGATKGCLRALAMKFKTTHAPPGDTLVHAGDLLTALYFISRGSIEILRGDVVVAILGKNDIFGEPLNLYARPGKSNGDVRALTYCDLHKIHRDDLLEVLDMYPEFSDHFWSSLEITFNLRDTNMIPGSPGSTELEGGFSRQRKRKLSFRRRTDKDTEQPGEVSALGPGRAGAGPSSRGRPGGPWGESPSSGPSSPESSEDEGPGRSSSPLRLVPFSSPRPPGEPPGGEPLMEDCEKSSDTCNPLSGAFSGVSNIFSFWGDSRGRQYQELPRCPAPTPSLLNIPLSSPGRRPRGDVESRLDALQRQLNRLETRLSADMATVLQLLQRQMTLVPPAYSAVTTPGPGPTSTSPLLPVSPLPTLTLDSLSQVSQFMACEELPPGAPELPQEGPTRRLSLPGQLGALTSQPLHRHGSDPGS
Test: Inhibition of human ERG at 10 uM by patch clamp assay relative to control
Decision: inhibition at 10 µM compared against 10%; not below it gives satisfied, below it gives not satisfied.

Would you please look over these solved cases?
## Task Given Cc1cc(C(F)(F)F)ccc1NC(=O)c1cc2nc(Nc3c(F)cccc3Cl)[nH]c2c2c1OC(C)(C)C2 , state whether its inhibition at 10 µM is at least 10%.
## Result satisfied

## Task Given CC1(C)Cc2c(c(C(=O)Nc3ccc(C(F)(F)F)cn3)cc3nc(Nc4c(Cl)cccc4Cl)[nH]c23)O1 , state whether its inhibition at 10 µM is at least 10%.
## Result not satisfied

## Task Given Cn1c(Nc2c(F)cccc2Cl)nc2cc(C(=O)Nc3cccc(C(F)(F)F)c3)c3c(c21)CC(C)(C)O3 , state whether its inhibition at 10 µM is at least 10%.
## Result satisfied

## Task Given Cc1ccc(NC(=O)c2cc3nc(Nc4c(F)cccc4Cl)n(C)c3c3c2OC(C)(C)C3)c(F)c1 , state whether its inhibition at 10 µM is at least 10%.
## Result satisfied

## Task Given Cc1cccc(Cl)c1Nc1nc2cc(C(=O)Nc3cc(C(F)(F)F)ccc3F)c3c(c2[nH]1)CC(C)(C)O3 , state whether its inhibition at 10 µM is at least 10%.
## Result satisfied

## Task Given CC1(C)Cc2c(c(C(=O)Nc3cc(C(F)(F)F)ccc3F)cc3nc(Nc4c(F)cccc4Cl)[nH]c23)O1 , state whether its inhibition at 10 µM is at least 10%.
## Result not satisfied

## Task Given Cc1cccc(Cl)c1Nc1nc2cc(C(=O)Nc3cc(C(F)F)ccc3F)c3c(c2[nH]1)CC(C)(C)O3 , state whether its inhibition at 10 µM is at least 10%.
## Result satisfied

Here's the next entry for you.
## Task Given CC1(C)Cc2c(c(C(=O)Nc3ccc(F)c(C(F)(F)F)c3)cc3nc(Nc4c(F)cccc4Cl)[nH]c23)O1 , state whether its inhibition at 10 µM is at least 10%.
## Result not satisfied

* * *

Assay: Ratio of drug uptake in brain to plasma of Dunkin-Hartley guinea pig LPS-induced hyperalgesia pain model at 10 mg/kg, po administered 2 hrs prior to LPS challenge measured 7 hrs post dose
Format: ADME, organism-based, Cavia porcellus
Details: brain and plasma, read-out: BPR
measure: Kp at 7 h
Numbers only.

Kp at 7 h recorded for this compound, CC1(C)Cc2c(c(C(=O)Nc3ccc(F)c(C(F)(F)F)c3)cc3nc(Nc4c(F)cccc4Cl)[nH]c23)O1 , is 1.02

* * *

Assay: Ratio of drug uptake in brain to plasma of Beagle dog at 10 mg/kg, po
Assay type: ADME, organism-based, Canis lupus familiaris
Conditions: read-out: BPR
measure: Kp
Answers are plain numbers.

Kp recorded for this compound, CC1(C)Cc2c(c(C(=O)Nc3ccc(C(F)(F)F)cn3)cc3nc(Nc4c(Cl)cccc4Cl)[nH]c23)O1 , is 0.32

More entries:
Kp recorded for this compound, CC1(C)Cc2c(c(C(=O)Nc3ccc(F)c(C(F)(F)F)c3)cc3nc(Nc4c(F)cccc4Cl)[nH]c23)O1 , is 0.72

* * *

Field: remaining at 1 h, 1 µM. Provide a value for each of the molecules that follow.
Test: Metabolic stability in guinea pig liver microsomes assessed as parent compound remaining at 1 uM after 60 mins in presence of NADPH by LC-MS/MS analysis
Type: ADME, Cavia porcellus, microsome
Details: read-out: Stability
Give bare numbers, in %.

Consider the worked cases shown below.
remaining at 1 h, 1 µM recorded for this molecule, Cn1c(Nc2c(F)cccc2Cl)nc2cc(C(=O)Nc3ccc(C(F)(F)F)cn3)c3c(c21)CC(C)(C)O3 , is 69

remaining at 1 h, 1 µM recorded for this molecule, CC1(C)Cc2c(c(C(=O)Nc3cc(C4CC4)ccc3F)cc3nc(Nc4c(Cl)cccc4Cl)[nH]c23)O1 , is 74

remaining at 1 h, 1 µM recorded for this molecule, Cn1c(Nc2c(F)cccc2Cl)nc2cc(C(=O)Nc3ccc(C(F)(F)F)cc3)c3c(c21)CC(C)(C)O3 , is 68

remaining at 1 h, 1 µM recorded for this molecule, Cc1cccc(Cl)c1Nc1nc2cc(C(=O)Nc3cc(C4CC4)ccc3F)c3c(c2[nH]1)CC(C)(C)O3 , is 55

remaining at 1 h, 1 µM recorded for this molecule, Cc1cccc(Cl)c1Nc1nc2cc(C(=O)Nc3cc(C(F)F)ccc3F)c3c(c2[nH]1)CC(C)(C)O3 , is 60

remaining at 1 h, 1 µM recorded for this molecule, CC1(C)Cc2c(c(C(=O)Nc3c(F)cccc3F)cc3nc(Nc4c(Cl)cccc4Cl)[nH]c23)O1 , is 80

remaining at 1 h, 1 µM recorded for this molecule, Cc1cccc(Cl)c1Nc1nc2cc(C(=O)Nc3ccc(C(F)(F)F)cc3)c3c(c2[nH]1)CC(C)(C)O3 , is 62

remaining at 1 h, 1 µM recorded for this molecule, CC1(C)Cc2c(c(C(=O)Nc3cc(C(F)F)ccc3F)cc3nc(Nc4c(F)cccc4Cl)[nH]c23)O1 , is 68

Hi! Can you tell me remaining at 1 h, 1 µM for each of these molecules?
1. CC1(C)Cc2c(c(C(=O)Nc3cc(C(F)(F)F)ccc3F)cc3nc(Nc4c(F)cccc4Cl)[nH]c23)O1
2. CC1(C)Cc2c(c(C(=O)Nc3ccc(F)c(C(F)(F)F)c3)cc3nc(Nc4c(F)cccc4Cl)[nH]c23)O1
3. Cn1c(Nc2c(F)cccc2Cl)nc2cc(C(=O)Nc3ccc(C4CC4)cc3)c3c(c21)CC(C)(C)O3
4. CC1(C)Cc2c(c(C(=O)Nc3ccccc3C(F)(F)F)cc3nc(Nc4c(F)cccc4Cl)[nH]c23)O1
5. CC1(C)Cc2c(c(C(=O)Nc3ccc(C(F)(F)F)cc3F)cc3nc(Nc4c(F)cccc4Cl)[nH]c23)O1

## Result
[79, 100, 51, 89, 80]
